Tested on: SH-SY5Y
Experiment: Cell cycle arrest in human SH-SY5Y cells assessed as accumulation at G0/G1 phase at 2 times IC50 concentration after 16 hrs by FACS analysis (reference value: 49 +/- 5.5%)
Type: functional
Consider the following compounds; for each one, report its Activity.

Activity for COc1ccc(C#CC(=O)c2cc(OC)c(OC)c(OC)c2)cc1 ?
79%

Activity for COc1ccc(-n2nnnc2C(=O)c2cc(OC)c(OC)c(OC)c2)cc1O ?
41%

Activity for COc1ccc(/C=C/C(=O)c2cc(OC)c(OC)c(OC)c2)cc1O ?
23%

Activity for COc1ccc(C(=O)C#Cc2cc(OC)c(OC)c(OC)c2)cc1 ?
76%

---

Assay: Inhibition of tubulin polymerization
measure name: pIC50
As a rule, pIC50 stands for the negative log10 of the concentration, concentration in M.

pIC50 for COc1ccc(/C=C/C(=O)c2cc(OC)c(OC)c(OC)c2)cc1O ?
6.00

pIC50 for COc1ccc(/C=C(\C)C(=O)c2cc(OC)c(OC)c(OC)c2)cc1O ?
5.74

---

Tested on: SH-SY5Y
Test: Cytotoxicity against human SH-SY5Y cells assessed as cell viability at 10 uM after 48 hrs by MTT assay relative to control
Format: functional
Details: read-out: Activity
Consider the following compounds; for each one, report its viability at 10 µM.

viability at 10 µM for COc1ccc(/C=C/C(=O)c2cc(OC)c(OC)c(OC)c2)cc1O ?
17%

viability at 10 µM for COc1ccc(-n2nnnc2C(=O)c2cc(OC)c(OC)c(OC)c2)cc1O ?
51.6%

viability at 10 µM for COc1ccc(C(=O)c2nn[nH]c2-c2cc(OC)c(OC)c(OC)c2)cc1 ?
> 70%

viability at 10 µM for COc1ccc(C#CC(=O)c2cc(OC)c(OC)c(OC)c2)cc1 ?
27.7%

viability at 10 µM for COc1ccc(C(=O)C#Cc2cc(OC)c(OC)c(OC)c2)cc1 ?
20.4%

viability at 10 µM for COc1ccc(-c2[nH]nnc2C(=O)c2cc(OC)c(OC)c(OC)c2)cc1 ?
> 70%

---

Test system: SH-SY5Y
Test: Cytotoxicity against human SH-SY5Y cells after 48 hrs by MTT assay
Type: functional, cell-based
measure name: pIC50
As a rule, pIC50 stands for the negative log10 of the concentration, concentration in M.

pIC50 for COc1ccc(/C=C(\C)C(=O)c2cc(OC)c(OC)c(OC)c2)cc1O ?
9.68

pIC50 for COc1ccc(/C=C/C(=O)c2cc(OC)c(OC)c(OC)c2)cc1O ?
7.30

---

System: SH-SY5Y
Experiment: Cell cycle arrest in human SH-SY5Y cells assessed as accumulation at S phase at 2 times IC50 concentration after 16 hrs by FACS analysis (reference value: 36 +/- 4%)
Assay type: functional
Consider the following compounds; for each one, report its Activity.
Report as a plain number; the unit % is understood.

Activity for COc1ccc(-n2nnnc2C(=O)c2cc(OC)c(OC)c(OC)c2)cc1O ?
30

Activity for COc1ccc(/C=C/C(=O)c2cc(OC)c(OC)c(OC)c2)cc1O ?
48

Activity for COc1ccc(C#CC(=O)c2cc(OC)c(OC)c(OC)c2)cc1 ?
16

Activity for COc1ccc(C(=O)C#Cc2cc(OC)c(OC)c(OC)c2)cc1 ?
18
